Test system: K562;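 note: after 48 h exposure read by CellTiter-Glo luminescence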
Assay: cell viability relative to vehicle control; higher = less cytotoxic
Settings: 10 µM; SRSF2 genotype: SRSF2 wt/wt
Listing: cell viability of selected compounds

- compound: "C[C@]12CCC(=O)C(O)=C1CC[C@@H]1[C@@H]2CC[C@]2(C)C(=O)CC[C@@H]12"
  cell viability: "102%"
- compound: "C[C@]12CC[C@H]3[C@@H](CC[C@@]45O[C@@H]4C(O)=C(C#N)C[C@]35C)[C@@H]1CC[C@@H]2O"
  cell viability: "97.6%"
- compound: "Cc1cc(C(C#N)c2ccc(Cl)cc2)c(Cl)cc1NC(=O)c1cc(I)cc(I)c1O (stereo not drawn)"
  cell viability: "92.3%"
- compound: "N#CC(C#N)=Cc1ccc(O)c(O)c1"
  cell viability: "80.7%"
- compound: "O=Cc1ccccc1"
  cell viability: "95%"
- compound: "CCc1c(C(=O)C(N)=O)c2c(OCC(=O)O)cccc2n1Cc1ccccc1"
  cell viability: "88.8%"
- compound: "COc1cc([C@@H]2c3cc4c(cc3[C@H](O)[C@H]3COC(=O)[C@H]23)OCO4)cc(OC)c1O"
  cell viability: "35.7%"
- compound: "COc1cc2c(cc1O)C[C@H]1c3c(cc(O)c(OC)c3-2)CCN1C"
  cell viability: "99%"
